Tested on: Pseudomonas aeruginosa
MEASUREMENT PROTOCOL: Antimicrobial activity against Pseudomonas aeruginosa ATCC 2756 assessed as growth inhibition serial 2-fold dilution microtitre plate method
Assay type: functional
QUANTITY KIND: MIC

Some molecules with recorded MIC:
In [3]: df
Out[3]:
                          molecule_smiles        result
0       COC(=O)/C=C/C(=O)NC[C@H](N)C(=O)O  > 2000 µg/mL
1    COC(=O)/C=C/C(=O)NC[C@H](N)C(N)=O.Cl  > 1020 µg/mL
2  CNC(=O)[C@@H](N)CNC(=O)/C=C/C(=O)OC.Cl  > 1020 µg/mL

Now for a further molecule.
Observed MIC, Pseudomonas aeruginosa, COC(=O)/C=C/C(=O)NC[C@H](N)C(=O)N(C)C.Cl : > 1020 µg/mL

Reference source for all entries: ChEMBL document CHEMBL3397043
